- TEST NAME: S. cerevisiae growth modulation with rapamycin, primary screen, strain BY4716, OD600, 96 h (AID 1091); also: test concentration not given here
- TEST SETTINGS: higher = more signal, called active from +8 up or from −8 down
The threshold is inclusive: z-score of exactly -0.4 counts as True; values below receive False.

Sample answers from the record:
{"COMPOUND": "O=C1CCCC=C1C(O)CCOCc1ccccc1 (stereo not given)", "GROUP": "False"}
{"COMPOUND": "CO[C@@H]1COC(=O)CC=C[C@@H](C)[C@@H]2C=C[C@H](O)[C@@H](COC(=O)CCC[C@H]1C)O2", "GROUP": "True"}

**Q:** Hi, just wondering whether `COc1ccc([Si](C)(C)[C@@H]2[C@@H](CC(=O)N3CCC[C@H]3CO)O[C@]3(C(=O)N(Cc4cccc(N5CCC5=O)c4)c4ccccc43)[C@H]2C)cc1` shows z-score of -0.4 or higher.
**A:** True

**Q:** Hi, just wondering whether `COC(=O)CC=C[C@@H](C)[C@H](OC)c1ccccc1Br` shows z-score of -0.4 or higher.
**A:** False

**Q:** Hi, just wondering whether `C[C@@H]1C=CCC(=O)OC[C@H](C)C(=O)OC[C@H]2O[C@H]1C=C[C@H]2O` shows z-score of -0.4 or higher.
**A:** True

**Q:** Hi, just wondering whether O=C1NC(=O)C2C1C=CC(C(O)Cc1ccccc1)N2Nc1ccccn1 (stereo not given) shows z-score of -0.4 or higher.
**A:** False

**Q:** Hi, just wondering whether `CC(C)CON=C1C[C@@H](O)[C@@H](O)[C@@H]2[C@@H]3C(=O)N(Cc4ccccc4)C(=O)[C@@H]3CC[C@@H]12` shows z-score of -0.4 or higher.
**A:** False

**Q:** Hi, just wondering whether `CC(C)[Si]1(C(C)C)O[C@@H](c2ccccc2)c2cc(C3CC3)nc(-c3ccccc3)c21` shows z-score of -0.4 or higher.
**A:** True

**Q:** Hi, just wondering whether `O=C(NN=C1C[C@@H](O)[C@@H](O)[C@@H]2[C@@H]3C(=O)N(c4ccc(F)cc4F)C(=O)[C@@H]3CC[C@@H]12)OCc1ccccc1` shows z-score of -0.4 or higher.
**A:** False

**Q:** Hi, just wondering whether `CC(C)=CCCC(C)=CCON=C1[C@H]2CCn3c(=O)n(Cc4cc5c(cc4Cl)OCO5)c(=O)n3[C@H]2[C@H](O)[C@@H]2O[C@H]12` shows z-score of -0.4 or higher.
**A:** True
